Experiment: Phase 1 Part A proton pump inhibitor (rabeprazole) effect on single-dose pharmacokinetics
Type: in vivo, human
Settings: human, plasma, oral, 800 mg single dose (A5), Fed, Low-fat, +20 mg Rabeprazole QD x 3; median
From the text: This study was a randomized, blinded, placebo-controlled, ascending-dose study to evaluate the safety, tolerability, and pharmacokinetic (PK) of single (Part A) and multiple (Part B) doses of Compound I in healthy subjects. […]
quantity name: Tmax (h)

• Cn1cc(-c2cn(-c3ccc(OC(F)(F)F)cc3)c(=O)c3ncn(C)c23)cn1 = 3

* * *

Test: Phase 1 multiple ascending dose (Part B) pharmacokinetics after low-fat meal
Type: in vivo, human
Details: human, plasma, oral, 200 mg, 200 mg BID (B1), Day 1, low-fat meal
quantity name: Cmax

- Cn1cc(-c2cn(-c3ccc(OC(F)(F)F)cc3)c(=O)c3ncn(C)c23)cn1 [Compound I]: 6080 ng/mL
